- Measured target: CYP2B6 (Homo sapiens, UniProt P20813)
- Sequence (P20813 1-491): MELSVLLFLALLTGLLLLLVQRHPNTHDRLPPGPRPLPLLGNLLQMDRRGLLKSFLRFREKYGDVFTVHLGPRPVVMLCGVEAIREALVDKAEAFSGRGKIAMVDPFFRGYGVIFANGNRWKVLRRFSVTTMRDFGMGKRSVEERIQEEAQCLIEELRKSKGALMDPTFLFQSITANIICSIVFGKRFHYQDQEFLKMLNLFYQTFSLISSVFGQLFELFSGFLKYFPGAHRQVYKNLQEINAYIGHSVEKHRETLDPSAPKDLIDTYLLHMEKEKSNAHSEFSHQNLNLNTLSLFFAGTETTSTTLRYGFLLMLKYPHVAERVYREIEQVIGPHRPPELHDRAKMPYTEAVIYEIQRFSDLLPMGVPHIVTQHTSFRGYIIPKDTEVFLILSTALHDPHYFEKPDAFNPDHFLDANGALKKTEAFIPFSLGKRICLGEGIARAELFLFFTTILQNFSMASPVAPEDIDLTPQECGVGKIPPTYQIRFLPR
- Assay overview: in vitro
- Experimental context: % Inhibition (set 1)
compounds and their reported inhibition at 100 μM
The answer is to be given in %; state only the numeric part.

CC(C)(CCCCCCCCCCC(C)(C)CC(=O)O)CC(=O)O : 20

Which measured inhibition at 100 μM value corresponds to CC(C)(CCCCCCCCCCCCC(C)(C)C(=O)O)C(=O)O ?
27
